Data origin, for the record: patent US12447153B2

For each record, write down the corresponding IC50.
# TARGET OR SYSTEM: EGFR wild type (EGFR WT) (Homo sapiens (Human), UniProt P00533)
# Sequence (P00533 25-1210): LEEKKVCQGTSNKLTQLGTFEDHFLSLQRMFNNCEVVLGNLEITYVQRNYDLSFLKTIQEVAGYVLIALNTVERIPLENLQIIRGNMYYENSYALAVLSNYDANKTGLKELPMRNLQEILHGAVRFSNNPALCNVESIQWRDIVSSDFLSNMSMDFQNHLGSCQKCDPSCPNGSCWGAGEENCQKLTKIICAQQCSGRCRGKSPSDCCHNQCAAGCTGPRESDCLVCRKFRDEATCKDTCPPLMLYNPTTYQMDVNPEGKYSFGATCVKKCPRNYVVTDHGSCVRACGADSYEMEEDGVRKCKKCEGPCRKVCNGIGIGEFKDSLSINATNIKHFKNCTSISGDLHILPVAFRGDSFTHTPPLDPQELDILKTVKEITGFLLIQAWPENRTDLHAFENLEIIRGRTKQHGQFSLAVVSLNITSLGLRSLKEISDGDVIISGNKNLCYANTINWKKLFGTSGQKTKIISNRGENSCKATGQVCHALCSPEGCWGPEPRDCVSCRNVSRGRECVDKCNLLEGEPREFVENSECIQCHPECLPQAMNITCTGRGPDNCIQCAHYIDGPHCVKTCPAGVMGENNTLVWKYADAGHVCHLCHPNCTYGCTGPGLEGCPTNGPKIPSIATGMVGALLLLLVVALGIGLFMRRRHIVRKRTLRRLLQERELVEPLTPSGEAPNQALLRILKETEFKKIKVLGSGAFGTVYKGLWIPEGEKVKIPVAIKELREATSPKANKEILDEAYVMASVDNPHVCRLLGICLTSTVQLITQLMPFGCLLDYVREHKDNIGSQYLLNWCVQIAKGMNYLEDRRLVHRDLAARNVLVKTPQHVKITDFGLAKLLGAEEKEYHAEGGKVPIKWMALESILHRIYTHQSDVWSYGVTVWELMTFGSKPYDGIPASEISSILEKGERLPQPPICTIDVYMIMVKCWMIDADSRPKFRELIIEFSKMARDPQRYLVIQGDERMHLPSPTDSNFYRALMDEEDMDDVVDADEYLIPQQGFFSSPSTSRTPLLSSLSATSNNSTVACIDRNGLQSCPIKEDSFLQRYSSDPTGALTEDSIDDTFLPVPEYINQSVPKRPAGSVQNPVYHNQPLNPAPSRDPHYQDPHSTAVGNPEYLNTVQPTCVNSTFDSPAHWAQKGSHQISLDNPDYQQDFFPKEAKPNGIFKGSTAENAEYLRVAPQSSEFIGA
# TEST PROTOCOL: Cellular Phosphorylation Assay, Assay 5 (EGF-stimulated EGFR phosphorylation, NIH 3T3 cells)
# Assay type: cell-based
# CONDITION SET: EGF-stimulated EGFR WT phosphorylation

These recorded examples may help you get a feel for the data.
COMPOUND: C=CC(=O)N1CCN(c2ccc3ncnc(Nc4ccc(Oc5ccc6c(c5)ncn6C)c(C)c4F)c3n2)C[C@@H]1C1CC1 [Example 162]
IC50: ≥ 5 µM

COMPOUND: C=CC(=O)N1CC[C@H]2C[C@@H]1CN2c1ccc2ncnc(Nc3ccc(Oc4cnc5c(c4)ncn5C)c(C)c3F)c2n1 [Example 237]
IC50: ≥ 5 µM

Provide reported IC50 for each item, in the same order as listed.
1. C=CC(=O)N1CC[C@@H]2CN(c3nc4c(Nc5ccc(Oc6ccn7ncnc7c6)c(C)c5F)ncnc4cc3OC)C[C@@H]21 [Example 154]
2. C=CC(=O)N1CCN(c2nc3c(Nc4ccc(Oc5ccn6ncnc6c5)c(C)c4F)ncnc3cc2Cl)C[C@@H]1C [Example 149]

Result:
1: 3.07 µM; 2: ≥ 5 µM
